assay: Cytotoxicity assay in MT-4 cells; format: cell-based; conditions: human, Cell-Titer Glo
Reported CC50 at 5 days values follow for various compounds
Numbers only; they are read as µM.

CCOC(=O)[C@H](C)NP(=O)(OC[C@@]1(C#N)O[C@@H](c2ccc3c(N)ncnn23)[C@H](O)[C@@H]1O)Oc1ccccc1 (stereo partly shown) [Example 35]; 47

**Query** Please give the documented CC50 at 5 days of CCC(CC)COC(=O)[C@H](C)NP(=O)(OC[C@@]1(N=[N+]=[N-])O[C@@H](c2ccc3c(N)ncnn23)[C@H](O)[C@@H]1O)Oc1ccccc1 (stereo partly shown) [Example 16]
**Result** 25

**Query** Please report the measured CC50 at 5 days for Nc1ncnn2c([C@@H]3O[C@H](CO)[C@@H](O)[C@H]3O)ccc12 [reference compound]
**Result** 0.007

###

tested on: RSV strain A2; experiment: Anti-RSV activity, infectious cytopathic cell protection assay in HEp-2 cells; assay type: cell-based, Respiratory Syncytial Virus (RSV); conditions: HEp-2 cells infected with RSV A2, 4 days, Cell TiterGlo; read-out: EC50
Quantity kind: EC50 (µM)
Give your result in µM as a bare value.

**Query** Give the value of EC50 reported for the following: N#C[C@]1(CO)O[C@@H](c2ccc3c(N)ncnn23)[C@H](O)[C@@H]1O
**Result** 7.3

###

experiment: Cytotoxicity assay in HEp-2 cells; type: cell-based; conditions: human, uninfected HEp-2 cells, CellTiter Glo
The entries below come with measured CC50 at 4 days values attached.

Some solved cases for reference:
CCC(CC)COC(=O)[C@H](C)NP(=O)(OC[C@@]1(N=[N+]=[N-])O[C@@H](c2ccc3c(N)ncnn23)[C@H](O)[C@@H]1O)Oc1ccccc1 (stereo partly shown); 18 µM
C[C@]1(CO)O[C@@H](c2ccc3c(N)ncnn23)[C@H](O)[C@@H]1O; > 50 µM

**Query** Output measured CC50 at 4 days for this item: CC(C)(C)C(=O)SCCOP(=O)(OCCSC(=O)C(C)(C)C)OC[C@@]1(C#N)O[C@@H](c2ccc3c(N)ncnn23)[C@H](F)[C@@H]1O
**Result** 42 µM

**Query** Output measured CC50 at 4 days for this item: C=C[C@]1(CO)O[C@@H](c2ccc3c(N)ncnn23)[C@H](O)[C@@H]1O
**Result** > 50 µM

**Query** For N#C[C@]1(CO)O[C@@H](c2cc(F)c3c(N)ncnn23)[C@H](F)[C@@H]1O , write its CC50 at 4 days.
**Result** 72 µM

###

System: HEp-2 cells
Assay: Cytotoxicity assay in HEp-2 cells
Type: cell-based
Conditions: uninfected HEp-2 cells, 4 days, CellTiter Glo
Procedure: Cytotoxicity of tested compounds is determined in uninfected HEp-2 cells in parallel with the antiviral activity using the cell viability reagent in a similar fashion as described before for other cell types (Cihlar et al., Antimicrob Agents Chemother. 2008, 52(2):655-65.). […] Assay plates are then incubated for 4 days followed by a cell viability test using the same CellTiter Glo reagent addition and measurement of luminescent readouts. […]
Quantity kind: CC50 (µM)
Provide the reading as a plain figure in µM.

**Query** Give CC50 for this entry on HEp-2 cells: CC(C)(C)C(=O)SCCOP(=O)(OCCSC(=O)C(C)(C)C)OC[C@@]1(C#N)O[C@@H](c2ccc3c(N)ncnn23)[C@H](O)[C@@H]1O [Example 10]
**Result** 39

Hey, just so you know, these numbers are from patent US9388208B2.
